- Test system: NCI/ADR-RES ovarian
- Assay details: NCI tumour cell line growth inhibition, 48 h
Attribute measured: TGI

Reference set, count: 3
CCO[C@@]12CCC3CC4CC[C@@](OCC)(O1)C4C32 (some centres undefined) ... > 100 µM
Cc1cc2c3c([n+](C)c4ccc(F)cc4c3c1)-c1cc(F)ccc1N2C ... > 100 µM
CC1CC(=NC2CCCCC2)Nc2ccccc2N1Cc1ccccc1 (centres undefined) ... 19.9 µM

Would you kindly look at the next entry?
// query API: value(readout=TGI, system=NCI/ADR-RES ovarian) for record C[C@@H](NC(=O)Cn1c(Cl)nc2ccccc21)c1ccccc1
// result > 100 µM
